biological target: Kj12B-^CDD_(short) peptide G1566A (printed as G1565 replaced with alanine) (Xenorhabdus stockiae KJ12.1); test: ITC
pKd: −log10 of the molar value.
measuredEndpoint: pKd

Value of pKd reported for the binder Kj12C-^NDD (N-terminal docking domain of Kj12C) (domain or fragment) GIDAAQIVDEALEQGITLFVVNNRLQYETSRDSIPTELLNKWKQHKQELIDFLNQLDSEEQTK is < 4.00
